- measurement protocol: Plasma and brain exposure after USV measurement
- Type: in vivo
- settings: rat, per os, about 75 min after treatment, formulation Tween
Please enter y where Brain exposure at 1 mg/kg is greater than or equal to 200 ng/g, and n where it is lower.

| compound | assigned class |
| --- | --- |
| COCC1(C(=O)O)CCCN(c2c(C(C)C)c(C)nc3cc(-c4ccc(C(F)(F)F)cc4F)nn23)C1 (stereo not shown) | n |
| Cc1nc2c(F)c(-c3ccc(C(F)(F)F)cc3)nn2c(N2CCC[C@](C)(C(=O)O)C2)c1C(C)C | n |
| CC[C@@]1(C(=O)O)CCCN(c2c(C(C)C)c(C)nc3cc(-c4ccc(C(F)(F)F)cc4F)nn23)C1 | y |
| Cc1nc2cc(-c3ccc(C(F)(F)F)cc3)nn2c(N2CCC[C@](C)(C(=O)O)C2)c1C(C)C | y |
| COCC1(C(=O)O)CCCN(c2c(C(C)C)c(C)nc3cc(-c4ccc(C(F)(F)F)cc4)nn23)C1 (stereo not shown) | n |
| Cc1nc2cc(-c3ccc(Cl)cc3)nn2c(N2CCCC(C(=O)O)(C(C)C)C2)c1C(C)C (stereo not shown) | y |
| Cc1nc2cc(-c3ccc(C(F)(F)F)cc3Cl)nn2c(N2CCC[C@](C)(C(=O)O)C2)c1C(C)C | y |

* * *

- measurement protocol: Plasma and brain exposure after USV measurement
- Type: in vivo
- settings: rat, per os, about 75 min after treatment, formulation SpD1
In this section, each of the molecules is paired with its reported Brain exposure at 1 mg/kg.

| molecule | Brain exposure at 1 mg/kg (ng/g) |
| --- | --- |
| CC[C@]1(C(=O)O)CCCN(c2c(C(C)C)c(C)nc3c(F)c(-c4ccc(C(F)(F)F)cc4)nn23)C1 [Example 15] | 1377 |
| CC[C@]1(C(=O)O)CCCN(c2c(C(C)C)c(C)nc3cc(-c4ccc(Cl)cc4)nn23)C1 [Example 5] | 857 |
| CCC1(C(=O)O)CCCN(c2c(C(C)C)c(C)nc3cc(-c4ccc(Cl)cc4)nn23)C1 (centres unmarked) [Example 20] | 1093 |
| CC[C@]1(C(=O)O)CCCN(c2c(C(C)C)c(C)nc3cc(-c4ccc(C(F)(F)F)c(F)c4)nn23)C1 [Example 14] | 1962 |
| Cc1nc2cc(-c3ccc(Cl)cc3)nn2c(N2CCC[C@](C(=O)O)(C(C)C)C2)c1C(C)C [Example 9] | 1849 |
